From: patent US20140206681A1

# IC50 annotations
biological target: BTK enzyme (recombinant full-length BTK, hBTK) (Homo sapiens); construct: recombinant protein from baculovirus-transfected Sf9 cells: full-length BTK, 6HIS-tag cleaved; 6HIS (cleaved yes); made in house; host or cells: baculovirus-transfected Sf9 cells; experiment: BTK enzyme activity assay, LANCE TR-FRET; type: biochemical; conditions: 50 pM hBTK, 2 μM biotin-A5-peptide, 25 μM ATP; 60 min compound & enzyme incubation; read-out: IC50 BTK activity value
Sequence (Q06187 whole entry): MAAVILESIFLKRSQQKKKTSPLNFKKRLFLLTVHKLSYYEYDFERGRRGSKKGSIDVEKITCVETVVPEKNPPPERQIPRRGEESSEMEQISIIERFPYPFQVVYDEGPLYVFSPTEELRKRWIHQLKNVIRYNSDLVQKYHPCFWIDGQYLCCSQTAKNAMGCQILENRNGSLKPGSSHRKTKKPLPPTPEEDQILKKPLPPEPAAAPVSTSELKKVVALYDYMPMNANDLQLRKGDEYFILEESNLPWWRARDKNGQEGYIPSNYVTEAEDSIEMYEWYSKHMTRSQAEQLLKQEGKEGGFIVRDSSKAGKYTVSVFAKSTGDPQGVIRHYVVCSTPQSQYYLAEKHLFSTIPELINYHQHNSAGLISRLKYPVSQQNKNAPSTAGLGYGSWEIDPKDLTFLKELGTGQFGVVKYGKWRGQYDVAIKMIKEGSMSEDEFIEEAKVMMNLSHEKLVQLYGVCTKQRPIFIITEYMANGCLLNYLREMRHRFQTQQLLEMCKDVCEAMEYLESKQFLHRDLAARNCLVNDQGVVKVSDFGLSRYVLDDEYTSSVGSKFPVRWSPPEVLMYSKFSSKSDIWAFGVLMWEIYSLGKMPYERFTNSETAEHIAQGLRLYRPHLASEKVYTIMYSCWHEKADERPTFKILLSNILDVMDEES
Numbers only here, please. The scale is nM.

// known answers, use as guide
| structure-string | unit-spec | value-reported |
| --- | --- | --- |
| CCOc1cc(C(=O)Nc2ncc(C)s2)ccc1-c1nc([C@@H]2CC[C@H]3CCC(=O)N3C2)n2c(F)cnc(N)c12 | nM | 1.9 |
| Nc1nccn2c([C@@H]3CC[C@@H]4C[C@H](O)C(=O)N4C3)nc(-c3ccc(C(=O)Nc4cc(C(F)(F)F)ccn4)cc3)c12 | nM | 7.6 |
| Nc1nccn2c([C@@H]3CC[C@H]4CCC(=O)N4C3)nc(-c3ccc(C(=O)Nc4cc(C(F)(F)F)n(C5CCCC5)n4)cc3)c12 | nM | 285 |
| Nc1nccn2c([C@@H]3CC[C@H]4CCC(=O)N4C3)nc(-c3ccc(C(=O)Nc4cc(C(F)(F)F)cnn4)cc3)c12 | nM | 1.2 |
| CC1(C)C[C@@H]2CC[C@@H](c3nc(-c4ccc(C(=O)Nc5cc(C(F)(F)F)ccn5)cc4)c4c(N)nccn34)CN2C1=O | nM | 11.4 |

Attention now turns to another entry.
Form entry - test system: BTK enzyme (recombinant full-length BTK, hBTK) (Homo sapiens); read-out: IC50; compound: CN1CC(=O)N2C[C@H](c3nc(-c4ccc(C(=O)Nc5cc(C(F)(F)F)ccn5)cc4)c4c(N)nccn34)CC[C@H]2C1 0.26

====

tested on: HeLa cells; assay: [3H]Adenosine uptake functional cellular assay; type: cell-based; details: Homo sapiens, HeLa, accumulation of [3H]adenosine into HeLa cells; compound range 10 μM to […]; read-out: Adenosine uptake inhibition IC50
readout-label: IC50 (µM)
The figure you give is taken to be in µM; do not add the unit.

The cases that follow already have their IC50 on record.
| compound | assay-system | unit-spec | value-reported |
| --- | --- | --- | --- |
| CCc1ccnc(NC(=O)c2ccc(-c3nc([C@@H]4CC[C@H]5CCC(=O)N5C4)n4ccnc(N)c34)cc2)c1 [Example 18] | HeLa cells | µM | 0.0635 |
| Nc1nccn2c([C@H]3CC[C@@H]4CCC(=O)N4C3)nc(-c3ccc(C(=O)Nc4ccccn4)cc3)c12 [Example 9] | HeLa cells | µM | 0.287 |
| Cc1cnc(NC(=O)c2ccc(-c3nc([C@@H]4CC[C@H]5CCC(=O)N5C4)n4ccnc(N)c34)c(Cl)c2)s1 [Example 195] | HeLa cells | µM | 0.175 |

Turning to the following compound.
# query: IC50 | item COc1cc(C(=O)Nc2cc(C(F)(F)F)ccn2)c(F)cc1-c1nc([C@@H]2CC[C@H]3CCC(=O)N3C2)n2ccnc(N)c12 [Example 130] | system: HeLa cells 0.728

====

Entries and their pIC50 values follow.
system: HeLa cells; test: [3H]Adenosine uptake functional cellular assay; format: cell-based; details: Homo sapiens, HeLa, accumulation of [3H]adenosine into HeLa cells; compound range 10 μM to […]; read-out: Adenosine uptake inhibition IC50
Please note pIC50 is a logarithmic value: minus log10 of concentration in mol/L. Answer with that number alone.

Example cases with answers are listed next.
| structure-string | pIC50 |
| --- | --- |
| CCOc1cc(C(=O)Nc2ncc(C)s2)ccc1-c1nc([C@@H]2CC[C@H]3CCC(=O)N3C2)n2c(Cl)cnc(N)c12 | 5.68 |
| C=C[C@H]1OC(=O)N2C[C@H](c3nc(-c4ccc(C(=O)Nc5cc(C(F)(F)F)ccn5)cc4)c4c(N)nccn34)CC[C@@H]12 | 7.00 |
| CC(C)(C)COc1cc(C(=O)Nc2cc(C(F)(F)F)ccn2)ccc1-c1nc([C@@H]2CC[C@H]3CCC(=O)N3C2)n2ccnc(N)c12 | 5.93 |
| CN1C[C@@H]2CC[C@@H](c3nc(-c4ccc(C(=O)Nc5cc(C(F)(F)F)ccn5)cc4)c4c(N)nccn34)CN2C1=O | 6.10 |
| CC(=O)Nc1nccn2c([C@@H]3CC[C@H]4CCC(=O)N4C3)nc(-c3ccc(C(=O)Nc4cc(C(F)(F)F)ccn4)cc3O)c12 | 5.76 |
| CN1CC[C@H]2CC[C@H](c3nc(-c4ccc(C(=O)Nc5cc(C(F)(F)F)ccn5)cc4)c4c(N)nccn34)CN2C1=O | 6.81 |
| COC(=O)Nc1nccn2c([C@@H]3CC[C@H]4CCC(=O)N4C3)nc(-c3ccc(C(=O)Nc4cc(C(F)(F)F)ccn4)cc3)c12 | 6.53 |

# ---- query compound ----
Fill in the blank: the reported pIC50 of Cc1cc(C(=O)Nc2cc(C(F)(F)F)ccn2)ccc1-c1nc([C@@H]2CC[C@H]3CCC(=O)N3C2)n2ccnc(N)c12 is ____. 6.51
